B1: TRIM39 (parent)
chain: ERDFPCPVCRKTSRYRSLRPNRQL

Variants of: B1
Experiment: protein stability index of a GFP-peptide fusion (GPS, HEK-293T) (PSI 1-6); higher = more stable;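 also: lentivirally expressed fusions sorted by FACS into six bins by GFP to DsRed ratio, PSI derived from sequencing read proportions per bin multiplied by bin number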
Details: c terminus: a fixed tail appended
This listing pairs variants with measured protein stability index.
readout type: protein stability index

R14T: 1.58
F4C: 2.12
R19K: 1.82
R2Y: 2.22
Y15N: 2.31
R22G: 2.17
C9T: 3.77
Q23F: 1.67
T12D: 1.37
V8F: 1.41
Q23K: 1.92
R16V: 2.04
S17R: 2.31
N21Q: 1.62
K11Y: 1.8
R16H: 2.29
C9N: 2.78
E1L: 2.34
R14Q: 2
K11D: 1.7
R2V: 3.06
Q23C: 1.8
